Each entry below carries its recorded Emax.
- system.tested: human sphingosine-1-phosphate receptor 2 (S1P2) (Homo sapiens (Human))
- Sequence (O95136 whole entry): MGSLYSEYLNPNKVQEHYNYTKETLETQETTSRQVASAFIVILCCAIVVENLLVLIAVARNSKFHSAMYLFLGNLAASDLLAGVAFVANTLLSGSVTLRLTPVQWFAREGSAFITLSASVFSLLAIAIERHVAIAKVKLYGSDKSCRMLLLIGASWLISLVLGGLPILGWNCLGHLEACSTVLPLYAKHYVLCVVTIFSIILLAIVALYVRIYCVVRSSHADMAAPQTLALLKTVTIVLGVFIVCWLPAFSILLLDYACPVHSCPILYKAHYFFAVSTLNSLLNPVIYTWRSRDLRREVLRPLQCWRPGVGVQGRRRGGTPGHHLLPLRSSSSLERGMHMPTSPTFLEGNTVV
- test.method.notes: Inositol monophosphate production (IP-one TB kit), S1P2 CHO-K1 cells
- Format: cell-based
- condition.set: CHO-K1; efficacy normalized to CYM5520; read-out: hS1P2 IP-one SPAN

INSERT INTO measurements (smiles_entry, quantity_measured, result) VALUES
  ('CCC1(CC)CC(=O)c2cc(-c3nc(-c4ccc(NS(C)(=O)=O)cc4)no3)ccc2O1', 'Emax', '> 50%'),
  ('COc1ccccc1-c1coc(-c2ccc3c(c2)nnn3C(C)C)n1', 'Emax', '> 50%'),
  ('CCC1(CC)CC(=O)c2cc(-c3nc(-c4ccncc4OC)no3)ccc2O1', 'Emax', '< 50%'),
  ('C=CCNc1ccc(-c2nc(-c3ccc4[nH]ncc4c3)no2)cc1C#N', 'Emax', '< 50%'),
  ('CC(C)n1nnc2cc(-c3nc(-c4ccncc4C(F)(F)F)no3)ccc21', 'Emax', '< 50%');

Noted for "CCC1(CC)CC(=O)c2cc(-c3nc(-c4ccc(C(=O)NC)cc4)no3)ccc2O1" : its Emax reads < 50%

Noted for "Cc1ccccc1-c1noc(-c2ccc3c(c2)nnn3C(C)C)n1" : its Emax reads < 50%

Noted for "C=CCNc1ccc(-c2nc(-c3ccc4[nH]cnc4c3)no2)cc1C#N" : its Emax reads < 50%

Noted for "CCC1(CC)CC(=O)c2cc(-c3nc(-c4cccnc4OC)no3)ccc2O1" : its Emax reads < 50%
